Tested on: LG0567-F671-PDC KRAS tumor spheroid viability
Assay: Anticancer human tumor LG0567-F671-PDC patient-derived lung adenocarcinoma cell line growth inhibition [KRAS2]
Conditions: second compound 1 µM; first compound 0.00316 µM; active compounds read low; spheroids with HUVEC and MSC
Catalogue of viability, T/C values
State just the number; it will be interpreted in %.

Answered examples (2):
- CC(=O)Nc1cccc(-n2c(=O)n(C3CC3)c(=O)c3c(Nc4ccc(I)cc4F)n(C)c(=O)c(C)c32)c1 + C=CC(=O)N1CCN(c2nc(=O)n(-c3c(C)ccnc3C(C)C)c3nc(-c4c(O)cccc4F)c(F)cc23)C(C)C1: 17.7
- CC(=O)Nc1cccc(-n2c(=O)n(C3CC3)c(=O)c3c(Nc4ccc(I)cc4F)n(C)c(=O)c(C)c32)c1 + CNCc1ccccc1-c1csc(C(C)Nc2nc(C)nc3cc(OC)c(OC)cc23)c1: 26.8

Alright, here's another compound for you.
Record CC(=O)Nc1cccc(-n2c(=O)n(C3CC3)c(=O)c3c(Nc4ccc(I)cc4F)n(C)c(=O)c(C)c32)c1 + COc1cc2nc(C)nc(NC(C)c3cc(N)cc(C(F)(F)F)c3)c2cc1OC1CCOC1 , field viability, T/C: 31.2

----------
Tested on: LG0567-F671-PDC KRAS tumor spheroid viability
Experiment: Anticancer human tumor LG0567-F671-PDC cell line growth inhibition [KRAS2]
Conditions: second compound 0.1 µM; first compound 0.1 µM; active compounds read low; spheroids with HUVEC and MSC
Catalogue of viability, T/C values

Answered examples (4):
• CCNC(=O)CC1N=C(c2ccc(Cl)cc2)c2cc(OC)ccc2-n2c(C)nnc21 (stereo unspecified) + CNCc1ccccc1-c1csc(C(C)Nc2nc(C)nc3cc(OC)c(OC)cc23)c1 = 92.1%
• CN(C)C/C=C/C(=O)Nc1cc2c(Nc3ccc(F)c(Cl)c3)ncnc2cc1O[C@H]1CCOC1 + CC1OCC2(CCN(c3cnc(Sc4ccnc(N)c4Cl)c(N)n3)CC2)C1N = 49.4%
• COc1cc2nccc(Oc3ccc(NC(=O)C4(C(=O)Nc5ccc(F)cc5)CC4)cc3)c2cc1OC + CC1OCC2(CCN(c3cnc(Sc4ccnc(N)c4Cl)c(N)n3)CC2)C1N = 50.4%
• Cn1nccc1Nc1nccc(-c2cc3c(s2)C(C)(C)N(CCN2CCOCC2)C3=O)n1 + CNCc1ccccc1-c1csc(C(C)Nc2nc(C)nc3cc(OC)c(OC)cc23)c1 = 68.6%

For CC1COCCN1c1cc(-c2ccnn2C)c2ccnc(-c3ccn[nH]3)c2n1 (stereo unspecified) + C=CC(=O)N1CCN(c2nc(OCC3CCCN3C)nc3c2CCN(c2cccc4cccc(C)c24)C3)CC1CC#N on LG0567-F671-PDC KRAS tumor spheroid viability, measured viability, T/C was 17.4%

For CC(C)n1nc(-c2ccc3oc(N)nc3c2)c2c(N)ncnc21 + COc1cc2nc(C)nc(NC(C)c3cc(N)cc(C(F)(F)F)c3)c2cc1OC1CCOC1 on LG0567-F671-PDC KRAS tumor spheroid viability, measured viability, T/C was 47.5%

----------
Test system: LG0567-F671-PDC KRAS tumor spheroid viability
Assay: Anticancer human tumor LG0567-F671-PDC cell line growth inhibition [KRAS2];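 also: drug exposure lasted seven days after spheroids formed for three days; 100% = DMSO vehicle control viability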
Conditions: second compound 1 µM; first compound 3.16 µM; active compounds read low; spheroids with HUVEC and MSC
Experimental Readout: viability, T/C (%)
State just the number; it will be interpreted in %.

Answered examples (3):
• CC1COCCN1c1cc(-c2ccnn2C)c2ccnc(-c3ccn[nH]3)c2n1 (configuration not stated) + CNCc1ccccc1-c1csc(C(C)Nc2nc(C)nc3cc(OC)c(OC)cc23)c1 = 33.4
• CC1COCCN1c1cc(-c2ccnn2C)c2ccnc(-c3ccn[nH]3)c2n1 (configuration not stated) + C=CC(=O)N1CCN(c2nc(OCC3CCCN3C)nc3c2CCN(c2cccc4cccc(C)c24)C3)CC1CC#N = 13.7
• CC1COCCN1c1cc(-c2ccnn2C)c2ccnc(-c3ccn[nH]3)c2n1 (configuration not stated) + CC1OCC2(CCN(c3cnc(Sc4ccnc(N)c4Cl)c(N)n3)CC2)C1N = 9.22

Record O=C(c1cc(Cc2n[nH]c(=O)c3ccccc23)ccc1F)N1CCN(C(=O)C2CC2)CC1 + CNCc1ccccc1-c1csc(C(C)Nc2nc(C)nc3cc(OC)c(OC)cc23)c1 , field viability, T/C: 67

Record Cn1nccc1Nc1nccc(-c2cc3c(s2)C(C)(C)N(CCN2CCOCC2)C3=O)n1 + CNCc1ccccc1-c1csc(C(C)Nc2nc(C)nc3cc(OC)c(OC)cc23)c1 , field viability, T/C: 29.1

Record COc1cc(Nc2ncc3c(n2)-c2ccc(Cl)cc2C(c2c(F)cccc2OC)=NC3)ccc1C(=O)O + C=CC(=O)N1CCN(c2nc(OCC3CCCN3C)nc3c2CCN(c2cccc4cccc(C)c24)C3)CC1CC#N , field viability, T/C: 26.7

Record CC1COCCN1c1cc(-c2ccnn2C)c2ccnc(-c3ccn[nH]3)c2n1 (configuration not stated) + C=CC(=O)N1CCN(c2nc(=O)n(-c3c(C)ccnc3C(C)C)c3nc(-c4c(O)cccc4F)c(F)cc23)C(C)C1 , field viability, T/C: 12.5

----------
Catalogue of viability, T/C values
Tested on: LG0567-F671-PDC KRAS tumor spheroid viability
Experiment: Anticancer human tumor LG0567-F671-PDC cell line growth inhibition [KRAS2];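 also: drug exposure lasted seven days after spheroids formed for three days; 100% = DMSO vehicle control viability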
Settings: compound 1 µM; active compounds read low; spheroids with HUVEC and MSC

Answered examples (8):
* Cn1nccc1Nc1nccc(-c2cc3c(s2)C(C)(C)N(CCN2CCOCC2)C3=O)n1 | 53.3% [middle of 5 runs]
* CC(=O)OC12COC1CC(O)C1(C)C(=O)C(O)C3=C(C)C(OC(=O)C(O)C(NC(=O)OC(C)(C)C)c4ccccc4)CC(O)(C(OC(=O)c4ccccc4)C21)C3(C)C (stereo not given) | 73.7% [middle of 5 runs]
* C=CC(=O)N1CCN(c2nc(OCC3CCCN3C)nc3c2CCN(c2cccc4cccc(C)c24)C3)CC1CC#N (stereo not given) | 30.4% [middle of 17 runs]
* CCN1CCN(Cc2ccc(Nc3ncc(F)c(-c4cc(F)c5nc(C)n(C(C)C)c5c4)n3)nc2)CC1 | 65.2% [middle of 5 runs]
* COc1cc2nccc(Oc3ccc(NC(=O)C4(C(=O)Nc5ccc(F)cc5)CC4)cc3)c2cc1OC | 67% [middle of 5 runs]
* C=CC(=O)N1CCN(c2nc(=O)n(-c3c(C)ccnc3C(C)C)c3nc(-c4c(O)cccc4F)c(F)cc23)C(C)C1 (stereo not given) | 25.1% [middle of 17 runs]
* O=C(c1cc(Cc2n[nH]c(=O)c3ccccc23)ccc1F)N1CCN(C(=O)C2CC2)CC1 | 93.1% [middle of 5 runs]
* COC(=O)c1ccc2c(C(=Nc3ccc(N(C)C(=O)CN4CCN(C)CC4)cc3)c3ccccc3)c(O)[nH]c2c1 | 90.2% [middle of 5 runs]

Record CC(C)NCC(C(=O)N1CCN(c2ncnc3c2C(C)CC3O)CC1)c1ccc(Cl)cc1 (stereo not given) , field viability, T/C: 71.3% [middle of 5 runs]

Record `CC1(C)CCC(CN2CCN(c3ccc(C(=O)NS(=O)(=O)c4ccc(NCC5CCOCC5)c([N+](=O)[O-])c4)c(Oc4cnc5[nH]ccc5c4)c3)CC2)=C(c2ccc(Cl)cc2)C1` , field viability, T/C: 89.9% [middle of 5 runs]

----------
Catalogue of viability, T/C values
System: LG0567-F671-PDC KRAS tumor spheroid viability
Experiment: Anticancer human tumor LG0567-F671-PDC cell line growth inhibition [KRAS2];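 also: drug exposure lasted seven days after spheroids formed for three days; 100% = DMSO vehicle control viability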
Settings: second compound 0.1 µM; first compound 0.316 µM; active compounds read low; spheroids with HUVEC and MSC
State just the number; it will be interpreted in %.

Answered examples (2):
• O=C(c1cc(Cc2n[nH]c(=O)c3ccccc23)ccc1F)N1CCN(C(=O)C2CC2)CC1 + C=CC(=O)N1CCN(c2nc(OCC3CCCN3C)nc3c2CCN(c2cccc4cccc(C)c24)C3)CC1CC#N = 23.6
• Cn1nccc1Nc1nccc(-c2cc3c(s2)C(C)(C)N(CCN2CCOCC2)C3=O)n1 + C=CC(=O)N1CCN(c2nc(=O)n(-c3c(C)ccnc3C(C)C)c3nc(-c4c(O)cccc4F)c(F)cc23)C(C)C1 = 19.2

Record CCN1CCN(Cc2ccc(Nc3ncc(F)c(-c4cc(F)c5nc(C)n(C(C)C)c5c4)n3)nc2)CC1 + CNCc1ccccc1-c1csc(C(C)Nc2nc(C)nc3cc(OC)c(OC)cc23)c1 , field viability, T/C: 50.1

----------
System: LG0567-F671-PDC KRAS tumor spheroid viability
Assay: Anticancer human tumor LG0567-F671-PDC cell line growth inhibition [KRAS2];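 also: drug exposure lasted seven days after spheroids formed for three days; 100% = DMSO vehicle control viability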
Conditions: second compound 1 µM; first compound 0.00316 µM; active compounds read low; spheroids with HUVEC and MSC
Experimental Readout: viability, T/C (%)
State just the number; it will be interpreted in %.

• CCN1CCN(Cc2ccc(Nc3ncc(F)c(-c4cc(F)c5nc(C)n(C(C)C)c5c4)n3)nc2)CC1 + C=CC(=O)N1CCN(c2nc(OCC3CCCN3C)nc3c2CCN(c2cccc4cccc(C)c24)C3)CC1CC#N = 27.7

Record CCN1CCN(Cc2ccc(Nc3ncc(F)c(-c4cc(F)c5nc(C)n(C(C)C)c5c4)n3)nc2)CC1 + COc1cc2nc(C)nc(NC(C)c3cc(N)cc(C(F)(F)F)c3)c2cc1OC1CCOC1 , field viability, T/C: 57.3

Record CCN1CCN(Cc2ccc(Nc3ncc(F)c(-c4cc(F)c5nc(C)n(C(C)C)c5c4)n3)nc2)CC1 + CC1OCC2(CCN(c3cnc(Sc4ccnc(N)c4Cl)c(N)n3)CC2)C1N , field viability, T/C: 26

Record CC(C)n1nc(-c2ccc3oc(N)nc3c2)c2c(N)ncnc21 + CNCc1ccccc1-c1csc(C(C)Nc2nc(C)nc3cc(OC)c(OC)cc23)c1 , field viability, T/C: 52.5

Record CC(C)n1nc(-c2ccc3oc(N)nc3c2)c2c(N)ncnc21 + COc1cc2nc(C)nc(NC(C)c3cc(N)cc(C(F)(F)F)c3)c2cc1OC1CCOC1 , field viability, T/C: 45.8

Record CC(C)n1nc(-c2ccc3oc(N)nc3c2)c2c(N)ncnc21 + C=CC(=O)N1CCN(c2nc(OCC3CCCN3C)nc3c2CCN(c2cccc4cccc(C)c24)C3)CC1CC#N , field viability, T/C: 25.6

Record CN(C)C/C=C/C(=O)Nc1cc2c(Nc3ccc(F)c(Cl)c3)ncnc2cc1O[C@H]1CCOC1 + COc1cc2nc(C)nc(NC(C)c3cc(N)cc(C(F)(F)F)c3)c2cc1OC1CCOC1 , field viability, T/C: 57.5

Record CCN1CCN(Cc2ccc(Nc3ncc(F)c(-c4cc(F)c5nc(C)n(C(C)C)c5c4)n3)nc2)CC1 + CNCc1ccccc1-c1csc(C(C)Nc2nc(C)nc3cc(OC)c(OC)cc23)c1 , field viability, T/C: 52

Record CCN1CCN(Cc2ccc(Nc3ncc(F)c(-c4cc(F)c5nc(C)n(C(C)C)c5c4)n3)nc2)CC1 + C=CC(=O)N1CCN(c2nc(=O)n(-c3c(C)ccnc3C(C)C)c3nc(-c4c(O)cccc4F)c(F)cc23)C(C)C1 , field viability, T/C: 21.3

Record CC(=O)Nc1cccc(-n2c(=O)n(C3CC3)c(=O)c3c(Nc4ccc(I)cc4F)n(C)c(=O)c(C)c32)c1 + C=CC(=O)N1CCN(c2nc(OCC3CCCN3C)nc3c2CCN(c2cccc4cccc(C)c24)C3)CC1CC#N , field viability, T/C: 31.7

Record CN(C)C/C=C/C(=O)Nc1cc2c(Nc3ccc(F)c(Cl)c3)ncnc2cc1O[C@H]1CCOC1 + CNCc1ccccc1-c1csc(C(C)Nc2nc(C)nc3cc(OC)c(OC)cc23)c1 , field viability, T/C: 49.4

Data credit: PubChem BioAssay AID1963856
